Reported log10 solubility kinetic values for a set of compounds
# run-parameters: buffer; pH 7.4; 200.0 µM
A value of 2 here means solubility kinetic of 100 in µg/mL, since values are log10.

Example entries begin here.
[
  {
    "mol-smiles": "Cc1nc(Cl)c(C(=O)Nc2cccc(F)c2)c(C)c1Cl",
    "log10 solubility kinetic": 0.69
  },
  {
    "mol-smiles": "Cn1c(S(=O)(=O)O)nc2ccccc21",
    "log10 solubility kinetic": 1.50
  },
  {
    "mol-smiles": "Nc1nc2ccccc2n1Cc1ccc(Cl)c(Cl)c1",
    "log10 solubility kinetic": 1.52
  },
  {
    "mol-smiles": "O=C(OCC(=O)N(CCc1ccccc1)Cc1ccccc1)c1cccc(O)c1",
    "log10 solubility kinetic": 0.41
  }
]

# log10 solubility kinetic of CCc1ccc(NS(=O)(=O)c2ccc3c(c2)oc(=O)n3C)cc1 = 0.32

====

# run-parameters: buffer; pH 7.4; 200.0 µM
measured-quantity: log10 of solubility kinetic (log10 of the value in µg/mL)
A value of 2 here means solubility kinetic of 100 in µg/mL, since values are log10.

# log10 of solubility kinetic of CCOC(=O)Cc1csc(NC(=O)Nc2ccc(Cl)cc2)n1 = 0.11

====

# run-parameters: buffer; pH 7.4; 200.0 µM
Lab note: compare solubility kinetic against 20 µg/mL. Equal or greater, write true. Smaller, write false.

Consider the following illustrative entries.
[
  {
    "molecule": "N#C/C(=C\\c1ccc(O)c(Br)c1)C(=O)N1CCCCC1",
    "assigned-category": "true"
  },
  {
    "molecule": "O=c1cc(/N=C/c2coc3cc(Br)ccc3c2=O)[nH]c(=S)[nH]1",
    "assigned-category": "false"
  },
  {
    "molecule": "O=C(NCc1ccc2c(c1)OCO2)c1cc(Cl)ccc1Cl",
    "assigned-category": "false"
  },
  {
    "molecule": "CCCCCNC(=O)c1ccc2c(c1)ncn2-c1ccc(OC)cc1",
    "assigned-category": "true"
  },
  {
    "molecule": "CC(C)NC(=O)C(=O)Nc1cc2c3c(c1)C(C)C(=O)N3CCC2 (stereo unspecified)",
    "assigned-category": "true"
  }
]

**Query** Answer whether solubility kinetic of CC(C)(C)c1csc(NC(=O)c2cccnc2Cl)n1 is greater than or equal to 20 µg/mL.
**Result** true

**Query** Answer whether solubility kinetic of CCOC(=O)c1c(C)[nH]c(C(=O)COC(=O)c2ccco2)c1C is greater than or equal to 20 µg/mL.
**Result** false

**Query** Answer whether solubility kinetic of Cc1cc2ncn(C(=O)c3ccc(F)cc3)c2cc1C is greater than or equal to 20 µg/mL.
**Result** true

**Query** Answer whether solubility kinetic of COc1ccc(Cl)cc1NC(=O)CN(C)C(=O)c1cccc2cccnc12 is greater than or equal to 20 µg/mL.
**Result** true

**Query** Answer whether solubility kinetic of CC(=O)c1ccc[n+](CC(=O)NC(C)c2ccccc2)c1.[Cl-] (stereo unspecified) is greater than or equal to 20 µg/mL.
**Result** true

**Query** Answer whether solubility kinetic of COc1ccc(OC(C)C(=O)NCC2CCCO2)cc1 (stereo unspecified) is greater than or equal to 20 µg/mL.
**Result** true

====

Reported log10 solubility kinetic values for a set of molecules
# run-parameters: buffer; pH 7.4; 200.0 µM
A value of 2 here means solubility kinetic of 100 in µg/mL, since values are log10.

[
  {
    "mol-smiles": "CCc1noc(C)c1C(=O)Nc1ccccc1C(C)(C)C",
    "log10 solubility kinetic": 1.59
  },
  {
    "mol-smiles": "O=C1NC(=Nc2cccnc2)S/C1=C/c1ccc(F)cc1",
    "log10 solubility kinetic": -0.15
  },
  {
    "mol-smiles": "COc1ccc(NC(=O)CNc2cc(S(=O)(=O)N3CCOCC3)ccc2N2CCOCC2)c(OC)c1",
    "log10 solubility kinetic": 0.62
  }
]

# log10 solubility kinetic of Cn1c(=O)c2sccc2n(Cc2cccc(Br)c2)c1=O = 0.15

# log10 solubility kinetic of O=C(OCCN1CCN(C2=NS(=O)(=O)c3ccccc32)CC1)c1ccccc1F = 1.76

# log10 solubility kinetic of O=C(O)c1ccccc1NCc1cccs1 = 1.38

====

# run-parameters: buffer; pH 7.4; 200.0 µM
measured-quantity: solubility kinetic (mg/mL)
Give your result in mg/mL as a bare value.

Example entries begin here.
[
  {
    "compound": "COc1cc2nc(N3CCN(C(=O)c4ccco4)CC3)nc(N)c2cc1OC.Cl",
    "solubility kinetic, mg/mL": 0.0619
  },
  {
    "compound": "CCN(C(=O)COC(=O)c1cc2c(s1)CCCC2)c1c(N)n(Cc2ccccc2)c(=O)[nH]c1=O",
    "solubility kinetic, mg/mL": 0.0033
  },
  {
    "compound": "Cc1ccc(C(=O)NCC(=O)NC2CCCC2)cc1",
    "solubility kinetic, mg/mL": 0.0304
  },
  {
    "compound": "Cc1cccc(Nc2nc(CC(=O)O)cs2)c1",
    "solubility kinetic, mg/mL": 0.0246
  },
  {
    "compound": "CC(NC(=O)c1ccc(Br)o1)c1ccccc1 (stereo not drawn)",
    "solubility kinetic, mg/mL": 0.0358
  }
]

With those in mind, consider the next compound.
# solubility kinetic of CCn1c(=O)c2sccc2n(Cc2ccccc2)c1=O = 0.0089

====

# run-parameters: buffer; pH 7.4; 200.0 µM
measured-quantity: solubility kinetic (µg/mL)
Give your result in µg/mL as a bare value.

[
  {
    "compound": "O=C(c1cc([N+](=O)[O-])ccc1Cl)N1CCc2ccccc21",
    "solubility kinetic (µg/mL)": 1.6
  },
  {
    "compound": "Cc1cccc(C)c1NC(=O)CN(C)C(=O)Cn1c(=O)cnc2ccccc21",
    "solubility kinetic (µg/mL)": 52.6
  },
  {
    "compound": "Cc1ccc(NC(=O)c2ccc(Cl)nc2)cc1",
    "solubility kinetic (µg/mL)": 9.3
  },
  {
    "compound": "O=C(NC(=S)N1CCN(c2ccccc2)CC1)c1ccccc1",
    "solubility kinetic (µg/mL)": 6.4
  }
]

# solubility kinetic of COc1ccc2[nH]cc(S(=O)(=O)c3ccc(C)cc3)c2c1 = 30.2

# solubility kinetic of NC(C(=O)O)C(c1ccccc1)C(F)F (configuration not stated) = 30

# solubility kinetic of CSCCNC(=O)c1ccc2nc(C3CCCCC3)oc2c1 = 13.2

# solubility kinetic of O=C(Oc1ccc(C(=S)N2CCOCC2)cc1)c1ccc(F)cc1 = 2.8

====

Reported solubility kinetic values for a set of compounds
# run-parameters: buffer; pH 7.4; 200.0 µM

Example entries begin here.
[
  {
    "compound": "Cc1c2c(n3c(nc4ccccc43)c1C#N)N(CCN(C)C)CC2",
    "solubility kinetic": "> 47.9 µg/mL"
  },
  {
    "compound": "COC(=O)C1C(O)=C(C=Nc2cccc3ccccc23)C(=O)CC1(C)C (configuration not stated)",
    "solubility kinetic": "31.6 µg/mL"
  }
]

# solubility kinetic of Cc1occc1C(=O)NCc1nc(-c2ccccc2)no1 = > 42.5 µg/mL

# solubility kinetic of O=C(NCCc1ccc(F)cc1)c1ccncc1 = > 36.6 µg/mL

# solubility kinetic of Clc1nccc(N2CCN(c3ccccc3Cl)CC2)n1 = 13.3 µg/mL

# solubility kinetic of Cc1nnc(SCC(=O)Nc2nccs2)o1 = > 38.4 µg/mL

# solubility kinetic of CC(Oc1ccc(F)cc1)C(=O)N1CCN(c2ncccn2)CC1 (configuration not stated) = > 49.6 µg/mL

# solubility kinetic of CCc1cccc(C)c1NC(=O)COC(=O)CSCc1ccccc1 = 13.7 µg/mL

====

# run-parameters: buffer; pH 7.4; 200.0 µM
measured-quantity: solubility kinetic (µg/mL)
Give your result in µg/mL as a bare value.

[
  {
    "mol-smiles": "Cc1cc2oc(C(=O)NCc3ccccc3)cc(=O)c2cc1C",
    "solubility kinetic (µg/mL)": 0.9
  }
]

# solubility kinetic of O=C1[C@@H]2[C@H]3CC[C@H](C3)[C@@H]2C(=O)N1O = 27

# solubility kinetic of O=[N+]([O-])c1ccc2c(c1)C(c1ccccc1)=NCCN2 = 16.8

# solubility kinetic of Cc1csc(N)n1 = 10.8

# solubility kinetic of O=C(CSC(=S)N1CCOCC1)Nc1ncc2c(n1)CCCC2=O = 54.7

====

# run-parameters: buffer; pH 7.4; 200.0 µM
measured-quantity: solubility kinetic (µg/mL)
Give your result in µg/mL as a bare value.

Example entries begin here.
[
  {
    "molecule": "COc1ccc(/C=C/C(=O)N2CC(C)OC(C)C2)cc1OC (stereo unspecified)",
    "units": "µg/mL",
    "solubility kinetic": 45.4
  },
  {
    "molecule": "CC(=O)Nc1ccc2c(COC(=O)[C@@H](NS(=O)(=O)c3ccc(C)cc3)C(C)C)cc(=O)oc2c1",
    "units": "µg/mL",
    "solubility kinetic": 8.6
  },
  {
    "molecule": "CCCc1cc(=O)[nH]c(SCC(=O)N2CCc3ccccc32)n1",
    "units": "µg/mL",
    "solubility kinetic": 7.6
  },
  {
    "molecule": "CN(C)S(=O)(=O)c1ccc(=S)[nH]c1",
    "units": "µg/mL",
    "solubility kinetic": 12.2
  },
  {
    "molecule": "COc1cccc(NC(=S)N2CCc3cc(OC)c(OC)cc3C2)c1",
    "units": "µg/mL",
    "solubility kinetic": 4.9
  },
  {
    "molecule": "O=C(Nc1ccc2[nH]ccc2c1)c1ccccc1",
    "units": "µg/mL",
    "solubility kinetic": 31.9
  },
  {
    "molecule": "COc1cc(NC(=S)N2CCCC2)cc(OC)c1",
    "units": "µg/mL",
    "solubility kinetic": 34.8
  }
]

With those in mind, consider the next molecule.
# solubility kinetic of O=C(Cc1c[nH]c2ccccc12)N1CCN(c2ccccc2)CC1 = 3.9

Entry source: PubChem BioAssay AID1996
